Each recorded value in this set is attributed to the supplement of paper PMC10567573.

B1: RSPH3 (parent)
chain: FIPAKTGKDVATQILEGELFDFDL

- Variants of: B1
- Experiment: protein stability index of a GFP-peptide fusion (GPS, HEK-293T) (PSI 1-6); higher = more stable;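 further: lentivirally expressed fusions sorted by FACS into six bins by GFP to DsRed ratio, PSI derived from sequencing read proportions per bin multiplied by bin number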
- Recorded Conditions: c terminus: a fixed tail appended
Experimental Endpoint: protein stability index
Numbers only.

Recorded results for 2 variants are shown here.
K5G = 1.97
G7W = 2.83

Could you tell me protein stability index for each of these variants? They are listed below.
1. E16K
2. E18D
3. T12Q
4. F1S
5. T12I
6. F1T
7. G7I
8. A4C

A:
1. 2.11
2. 2.04
3. 1.92
4. 4.66
5. 1.85
6. 4.34
7. 1.96
8. 2.08

Q: Look at this variant and give its reported protein stability index. D23W
A: 2.51
